# Species: Rattus norvegicus
# Test Protocol: Open TG-GATES - Regimen: Single
# Type: toxicity, organism-based, Sprague-Dawley
# Design: regimen Single, gender Male, age 6 weeks
# Experimental Context: in vivo, po, 300 mg/kg, 9 h, tissue Blood, route gavage, dose level Middle
Readout Kind: Fbg (mg/dL)
Please reply with the bare figure in mg/dL and do not write the unit itself.

The cases that follow already have their Fbg on record.
Compound | Unit Spec | Fbg
COC(=O)C1=C(C)NC(C)=C(C(=O)OC)C1c1ccccc1[N+](=O)[O-] [NIFEDIPINE] | mg/dL | 288
O=C(OC[C@H]1O[C@@H](OC(=O)c2cc(O)c(O)c(OC(=O)c3cc(O)c(O)c(O)c3)c2)[C@H](OC(=O)c2cc(O)c(O)c(OC(=O)c3cc(O)c(O)c(O)c3)c2)[C@@H](OC(=O)c2cc(O)c(O)c(OC(=O)c3cc(O)c(O)c(O)c3)c2)[C@@H]1OC(=O)c1cc(O)c(O)c(OC(=O)c2cc(O)c(O)c(O)c2)c1)c1cc(O)c(O)c(OC(=O)c2cc(O)c(O)c(O)c2)c1 [TANNIC ACID] | mg/dL | 219.8
Cc1nnc2n1-c1ccc(Cl)cc1C(c1ccccc1Cl)=NC2 [TRIAZOLAM] | mg/dL | 279.6
CNC(=C[N+](=O)[O-])NCCSCc1ccc(CN(C)C)o1 [RANITIDINE] | mg/dL | 241

Looking up CN/C(=N/CCSCc1nc[nH]c1C)NC#N [CIMETIDINE] , I see its Fbg listed as 214.4

----------
The following molecules are listed with their measured Mono values.
# Species on record: Rattus norvegicus
# Test Protocol: Open TG-GATES - Regimen: Daily Repeat
# Type: toxicity, organism-based, Sprague-Dawley
# Parameters: regimen Daily Repeat, gender Male, age 6 weeks
# Experimental Context: in vivo, po, 300 mg/kg, 72 h, tissue Blood, route gavage, dose level Middle, time 3 day
Please state the figure in %; there is no need to write the unit.

Solved entries (count: 2):
Input Smiles | Mono (%)
COC(=O)C1=C(C)NC(C)=C(C(=O)OC)C1c1ccccc1[N+](=O)[O-] | 3.6
Cc1nnc2n1-c1ccc(Cl)cc1C(c1ccccc1Cl)=NC2 | 3.2

Pending molecule:
// "CNC(=C[N+](=O)[O-])NCCSCc1ccc(CN(C)C)o1" : Mono value = 3.2

----------
# Species on record: Rattus norvegicus
# Test Protocol: Open TG-GATES - Regimen: Daily Repeat
# Format: toxicity, organism-based, Sprague-Dawley
# Design: regimen Daily Repeat, gender Male, age 6 weeks
# Experimental Context: in vivo, po, 1000 mg/kg, 72 h, tissue Plasma, route gavage, dose level High, time 3 day
# maps each entry to its BUN
State the answer as a number, implicitly in mg/dL.

Input Smiles | Readout Kind | Unit Spec | Reported
COC(=O)C1=C(C)NC(C)=C(C(=O)OC)C1c1ccccc1[N+](=O)[O-] | BUN | mg/dL | 14
Cc1nnc2n1-c1ccc(Cl)cc1C(c1ccccc1Cl)=NC2 | BUN | mg/dL | 14.4
O=C(OC[C@H]1O[C@@H](OC(=O)c2cc(O)c(O)c(OC(=O)c3cc(O)c(O)c(O)c3)c2)[C@H](OC(=O)c2cc(O)c(O)c(OC(=O)c3cc(O)c(O)c(O)c3)c2)[C@@H](OC(=O)c2cc(O)c(O)c(OC(=O)c3cc(O)c(O)c(O)c3)c2)[C@@H]1OC(=O)c1cc(O)c(O)c(OC(=O)c2cc(O)c(O)c(O)c2)c1)c1cc(O)c(O)c(OC(=O)c2cc(O)c(O)c(O)c2)c1 | BUN | mg/dL | 17.6

Field BUN (entry "CCOc1ccc(NC(C)=O)cc1" ) reads 17.8

"CN/C(=N/CCSCc1nc[nH]c1C)NC#N" has a reported BUN of 16.2

Notebook: "CNC(=C[N+](=O)[O-])NCCSCc1ccc(CN(C)C)o1" , BUN read as 14.8

Hey, just so you know, these numbers are from ChEMBL document CHEMBL3885861.
